These data points were gathered from the supplement of paper PMC10065799.

experimental-target: EPHB2 (UniProt P29323)
Sequence (P29323 whole entry, looked up): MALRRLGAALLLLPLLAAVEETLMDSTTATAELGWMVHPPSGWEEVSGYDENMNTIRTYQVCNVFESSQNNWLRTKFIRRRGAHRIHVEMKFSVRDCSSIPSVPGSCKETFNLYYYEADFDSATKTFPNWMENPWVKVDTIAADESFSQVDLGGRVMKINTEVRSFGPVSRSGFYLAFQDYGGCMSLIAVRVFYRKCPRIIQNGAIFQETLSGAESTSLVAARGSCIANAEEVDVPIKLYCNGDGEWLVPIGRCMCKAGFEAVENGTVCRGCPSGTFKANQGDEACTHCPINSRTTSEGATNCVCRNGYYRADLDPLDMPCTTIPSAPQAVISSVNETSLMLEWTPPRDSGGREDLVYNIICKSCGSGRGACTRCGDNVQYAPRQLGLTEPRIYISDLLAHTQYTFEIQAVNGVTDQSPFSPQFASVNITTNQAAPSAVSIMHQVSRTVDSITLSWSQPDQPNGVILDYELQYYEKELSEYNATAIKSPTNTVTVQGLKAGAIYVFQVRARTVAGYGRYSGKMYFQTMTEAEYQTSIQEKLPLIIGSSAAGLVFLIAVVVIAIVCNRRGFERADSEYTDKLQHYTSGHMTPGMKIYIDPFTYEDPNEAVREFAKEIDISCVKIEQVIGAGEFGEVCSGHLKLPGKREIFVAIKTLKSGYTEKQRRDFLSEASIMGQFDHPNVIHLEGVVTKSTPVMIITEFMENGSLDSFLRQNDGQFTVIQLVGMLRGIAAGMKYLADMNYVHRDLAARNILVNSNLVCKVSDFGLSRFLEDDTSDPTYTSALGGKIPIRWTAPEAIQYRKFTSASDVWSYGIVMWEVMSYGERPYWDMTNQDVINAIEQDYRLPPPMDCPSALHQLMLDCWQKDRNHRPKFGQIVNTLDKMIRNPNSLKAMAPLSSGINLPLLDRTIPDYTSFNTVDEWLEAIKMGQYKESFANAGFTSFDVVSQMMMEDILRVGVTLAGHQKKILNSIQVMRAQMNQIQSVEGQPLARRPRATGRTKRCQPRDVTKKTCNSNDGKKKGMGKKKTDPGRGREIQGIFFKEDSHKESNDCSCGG
protocol-text: phosphorylation enrichment, bacterial display (enrichment ratio); higher = better substrate or ligand; peptides without Tyr show the background;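 further: 11-residue human phosphosite peptides and single-mutation variants displayed on the E. coli surface, counted by deep sequencing, each peptide's frequency after selection divided by its frequency in the unselected input library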;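 further: frequency after pTyr selection over input frequency; kinase dosed for 20-30% of maximal phosphorylation in three min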
Label rule, in plain words: phosphorylation enrichment of 0.6 and up is Met, under 0.6 is Not met.

Identify whether the reported phosphorylation enrichment of the following sequence is 0.6 or greater: MKKKTYAMGGG [GAN_Y424_I423T]
Met

Identify whether the reported phosphorylation enrichment of the following sequence is 0.6 or greater: HIKHNYECLVF [XRCC5_Y416_YF]
Met

Identify whether the reported phosphorylation enrichment of the following sequence is 0.6 or greater: ATDLAYYLVRK [ASL_Y375]
Not met

Identify whether the reported phosphorylation enrichment of the following sequence is 0.6 or greater: MVTSGYKAKTI [EFR3A_Y447]
Not met

Identify whether the reported phosphorylation enrichment of the following sequence is 0.6 or greater: RLLCEYQELMN [KRT75_Y434_R432C]
Met

Identify whether the reported phosphorylation enrichment of the following sequence is 0.6 or greater: PANMVYSTVEI [SLAMF7_Y304_T302M]
Met

Identify whether the reported phosphorylation enrichment of the following sequence is 0.6 or greater: ARGMEYLAEQK [MST1R_Y1198_G1195S]
Not met

Identify whether the reported phosphorylation enrichment of the following sequence is 0.6 or greater: GFRVFYTPDSR [PTPRF_Y451_YF]
Not met

Identify whether the reported phosphorylation enrichment of the following sequence is 0.6 or greater: KVIDMYLMGCF [GABRB2_Y308_A304V]
Not met

Identify whether the reported phosphorylation enrichment of the following sequence is 0.6 or greater: LITTLYIGFLG [KCNQ1_Y267]
Met

Identify whether the reported phosphorylation enrichment of the following sequence is 0.6 or greater: DLAGRYFALKS [CKB_Y173_YF]
Not met

Identify whether the reported phosphorylation enrichment of the following sequence is 0.6 or greater: RVSSVYTRSTG [CCR5_Y339_A335V]
Met

Identify whether the reported phosphorylation enrichment of the following sequence is 0.6 or greater: HTVVSYAKVRA [CLOCK_Y378_E380K]
Met

Identify whether the reported phosphorylation enrichment of the following sequence is 0.6 or greater: DEEYEYMNRRR [ERBB3_Y1199]
Not met

Identify whether the reported phosphorylation enrichment of the following sequence is 0.6 or greater: LNLDTYQKRLR [PLA2G2D_Y126_R121L]
Not met

Identify whether the reported phosphorylation enrichment of the following sequence is 0.6 or greater: PYRQWYESHYA [RPS8_Y113]
Met

Identify whether the reported phosphorylation enrichment of the following sequence is 0.6 or greater: EPSVPYRGMVF [GLI3_Y104_T107M]
Not met

Identify whether the reported phosphorylation enrichment of the following sequence is 0.6 or greater: EQKKYSNAMKK [SCN5A_Y1495_Y1495S]
Not met

Identify whether the reported phosphorylation enrichment of the following sequence is 0.6 or greater: ADLLDYIKALN [HPRT1_Y81]
Not met

Identify whether the reported phosphorylation enrichment of the following sequence is 0.6 or greater: TMKSHYMELFD [BBS2_Y644_R643H_YF]
Not met

Identify whether the reported phosphorylation enrichment of the following sequence is 0.6 or greater: LAAAGYDVEKN [H1-3_Y72]
Not met

Identify whether the reported phosphorylation enrichment of the following sequence is 0.6 or greater: ANLAKYGNPNE [BCHE_Y505_F502L]
Not met

Identify whether the reported phosphorylation enrichment of the following sequence is 0.6 or greater: DRPASYLDKVR [KRT17_Y98_L95P]
Not met

Identify whether the reported phosphorylation enrichment of the following sequence is 0.6 or greater: EGDGVYTLNDE [HP_Y125_N129D]
Met
